pIC50: −log10 of the molar value.
Target or system PIK3CB (Human); metric pIC50; compiled from varied reports.

Input line: Give recorded pIC50 with PIK3CB (Human) for the following molecule: C[C@H](Nc1ccnc2ccnn12)c1cc2cccc(Cl)c2c(OC2CCN(S(C)(=O)=O)CC2)n1
Output line: > 5.00

Input line: Give recorded pIC50 with PIK3CB (Human) for the following molecule: Nc1nc2cc(-c3ccc4ncn(C5CCNCC5)c(=O)c4c3)ccc2o1
Output line: > 5.00

Input line: Give recorded pIC50 with PIK3CB (Human) for the following molecule: Cc1cccc2cc(Cn3nc(C(C)C)c4c(N)ncnc43)n(-c3ccccc3)c(=O)c12
Output line: < 5.00

Input line: Give recorded pIC50 with PIK3CB (Human) for the following molecule: Nc1nc2cc(-c3cc(F)c4oc(N)nc4c3)ccc2o1
Output line: > 6.00

Input line: Give recorded pIC50 with PIK3CB (Human) for the following molecule: CNC(=O)C(C)Cn1cnc2ccc(-c3cnc(OC)c(NS(=O)(=O)c4cc(C)ccc4Cl)c3)cc2c1=O (single isomer, unassigned)
Output line: 6.56

Input line: Give recorded pIC50 with PIK3CB (Human) for the following molecule: C[C@H](Nc1ncnc2scnc12)c1cc2cccc(Cl)c2c(C(=O)N2CCNC(=O)C2)n1
Output line: > 5.00

Input line: Give recorded pIC50 with PIK3CB (Human) for the following molecule: Nc1nc2cc(-c3ccc4ncn(C5CCC5)c(=O)c4c3)ccc2o1
Output line: < 5.00

Input line: Give recorded pIC50 with PIK3CB (Human) for the following molecule: Nc1nc2cc(-c3ccc4ncc(C(=O)N5CCC(F)(F)CC5)n4c3)ccc2o1
Output line: < 5.00

Input line: Give recorded pIC50 with PIK3CB (Human) for the following molecule: C[C@H](Nc1ncnc2scnc12)c1cc2cccc(Cl)c2c(OCCN2CCCC2)n1
Output line: > 6.00

Input line: Give recorded pIC50 with PIK3CB (Human) for the following molecule: Nc1nccc(-c2cc(-c3nnc[nH]3)c3ncn(-c4cc(N5CCNCC5)nc5ccccc45)c3c2)c1F
Output line: 8.00

Input line: Give recorded pIC50 with PIK3CB (Human) for the following molecule: NC(=O)[C@@H]1CCCN1c1cnc2ccc(-c3ccc4oc(N)nc4c3)cc2n1
Output line: < 5.00

Input line: Give recorded pIC50 with PIK3CB (Human) for the following molecule: Nc1nc2cc(-c3ccc4ncc(-c5cccnc5)nc4n3)ccc2o1
Output line: > 5.00

Input line: Give recorded pIC50 with PIK3CB (Human) for the following molecule: Cc1cccc2cc([C@H](C)Nc3ncnc4[nH]nc(Cl)c34)n(C3CC3)c(=O)c12
Output line: > 6.00

Input line: Give recorded pIC50 with PIK3CB (Human) for the following molecule: C[C@H](NC(=O)c1c(N)nn2c1NCCC2)c1cc2cccc(Cl)c2c(=O)n1-c1ccccc1
Output line: < 5.00

Input line: Give recorded pIC50 with PIK3CB (Human) for the following molecule: C[C@H]1CN(c2cnc3cccc(-c4ccc5oc(N)nc5c4)c3n2)CCN1
Output line: < 5.00

Input line: Give recorded pIC50 with PIK3CB (Human) for the following molecule: Cc1cccnc1-n1c(Cn2nc(-c3ccc4oc(N)nc4c3)c3c(N)ncnc32)cc2cccc(C)c2c1=O
Output line: > 5.00

Input line: Give recorded pIC50 with PIK3CB (Human) for the following molecule: Nc1noc2cc(-c3ccc4nccc(-c5ccncc5)c4c3)ccc12
Output line: > 5.00
